Reported values of growth inhibition by drug plus 177Lu-lilotomab satetraxetan for individual entries
System: U-2932
Experiment: growth inhibition by drug plus 177Lu-lilotomab satetraxetan (1 - RLU/untreated control) (fraction); higher = stronger inhibition
Details: 10 nM; time (day): 3; 177Lu-lilotomab satetraxetan 1 ug/ml

Solved entries (count: 2):
Incoming: Recorded growth inhibition by drug plus 177Lu-lilotomab satetraxetan for `Cc1ccc(C(=O)N(CCCN)[C@@H](c2oc3cc(Cl)ccc3c(=O)c2Cc2ccccc2)C(C)C)cc1` with U-2932, please?
Outgoing: 0.964

Incoming: Now give it for `CCC(CC)CC1(C(=O)Nc2ccccc2SC(=O)C(C)C)CCCCC1` too.
Outgoing: 0.00638

More entries:
Incoming: Recorded growth inhibition by drug plus 177Lu-lilotomab satetraxetan for `N#Cc1ccc(COC[C@H]2O[C@@H](n3c(NCc4ccc(Cl)c(Cl)c4)nc4c(N)ncnc43)[C@H](O)[C@@H]2O)cc1` with U-2932, please?
Outgoing: -0.0128

Incoming: Now give it for Nc1nc2[nH]cc(CCc3ccc(C(=O)N[C@@H](CCC(=O)O)C(=O)O)cc3)c2c(=O)[nH]1 [Pemetrexed] too.
Outgoing: -0.058

----------
Tested on: RIVA
Test: growth inhibition by drug alone (1 - RLU/untreated control) (fraction); higher = stronger inhibition
Conditions: 100 nM; time (day): 3; 177Lu-lilotomab satetraxetan 0 ug/ml
Structures can show the parent of a compound that is named as a salt.
Decision: growth inhibition by drug alone >= -0.4 yields label 1, all other cases yield label 0.

Take a look at these entries with their results.
Incoming: Exam item: decide whether the reported growth inhibition by drug alone for `C=CCn1c(=O)c2cnc(Nc3ccc(N4CCN(C)CC4)cc3)nc2n1-c1cccc(C(C)(C)O)n1` is at least -0.4.
Outgoing: label 0

Incoming: Now give it for COc1cccc2c1C(=O)c1c(O)c3c(c(O)c1C2=O)C[C@@](O)(C(=O)CO)C[C@@H]3O[C@H]1C[C@H](N)[C@H](O)[C@H](C)O1 [Doxorubicin (Adriamycin)] too.
Outgoing: label 1

Incoming: Now give it for O=NN(CCCl)C(=O)NC1CCCCC1 [Lomustine (CeeNU)] too.
Outgoing: label 1

Incoming: Now give it for `O=C(Cc1ccc(-c2ccc(OCCN3CCOCC3)cc2)cn1)NCc1ccccc1` too.
Outgoing: label 1

Incoming: Now give it for O=c1c(O)c(-c2ccc(O)c(O)c2)oc2cc(O)cc(O)c12 [Quercetin (Sophoretin)] too.
Outgoing: label 0

Incoming: Now give it for CCCCCOC(=O)Nc1nc(=O)n([C@@H]2O[C@H](C)[C@@H](O)[C@H]2O)cc1F [Capecitabine (Xeloda)] too.
Outgoing: label 1

Incoming: Now give it for CC(C)n1c(/C=C/C(O)CC(O)CC(=O)O)c(-c2ccc(F)cc2)c2ccccc21 (stereo unspecified) [Fluvastatin sodium (Lescol)] too.
Outgoing: label 1

Incoming: Now give it for O=C(CCCCCCC(=O)Nc1cccnc1)NO [Pyroxamide] too.
Outgoing: label 1

More entries:
Incoming: Exam item: decide whether the reported growth inhibition by drug alone for COc1ccc(C2=N[C@@H](c3ccc(Cl)cc3)[C@@H](c3ccc(Cl)cc3)N2C(=O)N2CCNC(=O)C2)c(OC(C)C)c1 [Nutlin-3] is at least -0.4.
Outgoing: label 0

Incoming: Now give it for COC1=CC(c2cc3ccccc3[nH]2)=N/C1=C\c1[nH]c(C)cc1C [Obatoclax mesylate (GX15-070)] too.
Outgoing: label 0

Incoming: Now give it for CC(=O)O[C@]1(C(C)=O)CC[C@H]2[C@@H]3C=C(C)C4=CC(=O)CC[C@]4(C)[C@H]3CC[C@@]21C [Megestrol Acetate] too.
Outgoing: label 1

Values from the supplement of paper PMC6897291
